Hey, just so you know, these numbers are from ChEMBL document CHEMBL1135836.

List of pEC50 values.
# Species on record: Mus musculus
# assay details: In vitro reversal activity versus ~90% block by rocuronium in isolated mouse hemidiaphragm, expressed as effective conc.
# Assay type: functional
Entry type: numeric. Quantity: pEC50, the -log10 of concentration in molar units.

The examples below pair each entry with its known result.
molecule	measured attribute	obs value
NC(=O)CCCSCC1O[C@@H]2O[C@@H]3C(CSCCCC(N)=O)O[C@H](O[C@@H]4C(CSCCCC(N)=O)O[C@H](O[C@@H]5C(CSCCCC(N)=O)O[C@H](O[C@@H]6C(CSCCCC(N)=O)O[C@H](O[C@@H]7C(CSCCCC(N)=O)O[C@H](O[C@@H]8C(CSCCCC(N)=O)O[C@H](O[C@@H]9C(CSCCCC(N)=O)O[C@H](O[C@H]1C(O)C2O)C(O)C9O)C(O)C8O)C(O)C7O)C(O)C6O)C(O)C5O)C(O)C4O)C(O)C3O (stereo not given in full)	pEC50	5.30
O=C([O-])CSCC1O[C@@H]2O[C@@H]3C(CSCC(=O)[O-])O[C@H](O[C@@H]4C(CSCC(=O)[O-])O[C@H](O[C@@H]5C(CSCC(=O)[O-])O[C@@H](O[C@@H]6C(CSCC(=O)[O-])O[C@H](O[C@@H]7C(CSCC(=O)[O-])O[C@H](O[C@@H]8C(CSCC(=O)[O-])O[C@H](O[C@H]1C(O)C2O)C(O)C8O)C(O)C7O)C(O)C6O)C(O)C5O)C(O)C4O)C(O)C3O.[Na+].[Na+].[Na+].[Na+].[Na+].[Na+].[Na+] (stereo not given in full)	pEC50	5.19
OCC1O[C@@H]2O[C@@H]3C(CO)O[C@H](O[C@@H]4C(CO)O[C@H](O[C@@H]5C(CO)O[C@H](O[C@@H]6C(CO)O[C@H](O[C@@H]7C(CO)O[C@H](O[C@@H]8C(CO)O[C@H](O[C@@H]9C(CO)O[C@H](O[C@H]1C(O)C2O)C(O)C9O)C(O)C8O)C(O)C7O)C(O)C6O)C(O)C5O)C(O)C4O)C(O)C3O (stereo not given in full)	pEC50	4.46
O=C([O-])c1ccc(SCC2O[C@@H]3O[C@@H]4C(CO)O[C@H](O[C@@H]5C(CO)O[C@H](O[C@@H]6C(CO)O[C@H](O[C@@H]7C(CO)O[C@H](O[C@@H]8C(CO)O[C@H](O[C@@H]9C(CO)O[C@H](O[C@@H]%10C(CO)O[C@H](O[C@H]2C(O)C3O)C(O)C%10O)C(O)C9O)C(O)C8O)C(O)C7O)C(O)C6O)C(O)C5O)C(O)C4O)cc1.[Na+] (stereo not given in full)	pEC50	4.30
O=C([O-])CCSCC1O[C@@H]2O[C@@H]3C(CO)O[C@H](O[C@@H]4C(CO)O[C@H](O[C@@H]5C(CO)O[C@H](O[C@@H]6C(CO)O[C@H](O[C@@H]7C(CO)O[C@H](O[C@@H]8C(CO)O[C@H](O[C@@H]9C(CO)O[C@H](O[C@H]1C(O)C2O)C(O)C9O)C(O)C8O)C(O)C7O)C(O)C6O)C(O)C5O)C(O)C4O)C(O)C3O.[Na+] (stereo not given in full)	pEC50	4.76
CN(C)C(=O)Oc1cccc([N+](C)(C)C)c1.[Br-] [NEOSTIGMINE BROMIDE]	pEC50	6.05

Please report pEC50 for the following molecule: CNC(=O)CSCC1O[C@@H]2O[C@@H]3C(CSCC(=O)NC)O[C@H](O[C@@H]4C(CSCC(=O)NC)O[C@H](O[C@@H]5C(CSCC(=O)NC)O[C@H](O[C@@H]6C(CSCC(=O)NC)O[C@H](O[C@@H]7C(CSCC(=O)NC)O[C@H](O[C@@H]8C(CSCC(=O)NC)O[C@H](O[C@@H]9C(CSCC(=O)NC)O[C@H](O[C@H]1C(O)C2O)C(O)C9O)C(O)C8O)C(O)C7O)C(O)C6O)C(O)C5O)C(O)C4O)C(O)C3O (stereo not given in full)
5.19

Please report pEC50 for the following molecule: OCCSCC1O[C@@H]2O[C@@H]3C(CSCCO)O[C@H](O[C@@H]4C(CSCCO)O[C@H](O[C@@H]5C(CSCCO)O[C@H](O[C@@H]6C(CSCCO)O[C@H](O[C@@H]7C(CSCCO)O[C@H](O[C@@H]8C(CSCCO)O[C@H](O[C@@H]9C(CSCCO)O[C@H](O[C@H]1C(O)C2O)C(O)C9O)C(O)C8O)C(O)C7O)C(O)C6O)C(O)C5O)C(O)C4O)C(O)C3O (stereo not given in full)
5.40
